Entries and their PBM binding z-score
test system: PPARg:RXRa 30nM:10nM, anti-RXR (NR concentration 30 nM, RXRa partner concentration 10 nM); test: PBM binding z-score (relative to random genomic background probes); higher = stronger binding; sequences stand for … in GC…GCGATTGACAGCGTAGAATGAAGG

query sequence	test target	PBM binding z-score
GCTGACGGGTCAAAGGTTATAGCATGAATAGAAT	PPARg:RXRa 30nM:10nM, anti-RXR (NR concentration 30 nM, RXRa partner concentration 10 nM)	7.21
CCTAGTTGGTCAGGAGATCACACACCGGATATGA	PPARg:RXRa 30nM:10nM, anti-RXR (NR concentration 30 nM, RXRa partner concentration 10 nM)	0.236
TGAATGAGGTTAAAGCTCAGGGAACGTGGCGTCG	PPARg:RXRa 30nM:10nM, anti-RXR (NR concentration 30 nM, RXRa partner concentration 10 nM)	2.09
ATCCAAAGGTCGAAGGTGAGTATACCCACCCGAA	PPARg:RXRa 30nM:10nM, anti-RXR (NR concentration 30 nM, RXRa partner concentration 10 nM)	2.53
GCTAGTTGGTCAGTAAAAGGTCACTCACCGGTCG	PPARg:RXRa 30nM:10nM, anti-RXR (NR concentration 30 nM, RXRa partner concentration 10 nM)	1.77
AGAAAGAGGTTATTAAGATCAGGGAATTGCGGTC	PPARg:RXRa 30nM:10nM, anti-RXR (NR concentration 30 nM, RXRa partner concentration 10 nM)	0.665
CCTACTGGGCCACGAAAGGTCATTCATTCAGTGA	PPARg:RXRa 30nM:10nM, anti-RXR (NR concentration 30 nM, RXRa partner concentration 10 nM)	1.88
GGAAAGAGGGCAAGTTGATAGCAGAGTTTGATGG	PPARg:RXRa 30nM:10nM, anti-RXR (NR concentration 30 nM, RXRa partner concentration 10 nM)	0.606
ATCTCTAGGGAAAAGTTCAGTGAATCCCGAGGAT	PPARg:RXRa 30nM:10nM, anti-RXR (NR concentration 30 nM, RXRa partner concentration 10 nM)	3.84
TCTTGTAGATGAACAGGAGGTTAAGAAAGATCGA	PPARg:RXRa 30nM:10nM, anti-RXR (NR concentration 30 nM, RXRa partner concentration 10 nM)	2.89
TCTTGTAGATCAAGGAGGTTAAGAAAGCCTGAGT	PPARg:RXRa 30nM:10nM, anti-RXR (NR concentration 30 nM, RXRa partner concentration 10 nM)	2.7
TCGAGTAGGTTCGGGGCATTCAGAATGGCGTCGA	PPARg:RXRa 30nM:10nM, anti-RXR (NR concentration 30 nM, RXRa partner concentration 10 nM)	0.452
CGTCCAAGGTCAAGGTCAGTCAAAGAGACTCGAA	PPARg:RXRa 30nM:10nM, anti-RXR (NR concentration 30 nM, RXRa partner concentration 10 nM)	2.6
GCTTGTAGATCAAGGTTAAGATAGACTAAGCTAA	PPARg:RXRa 30nM:10nM, anti-RXR (NR concentration 30 nM, RXRa partner concentration 10 nM)	0.465
CGTCATAGTTCAAGGTAACGTAACAGAAAGCAGC	PPARg:RXRa 30nM:10nM, anti-RXR (NR concentration 30 nM, RXRa partner concentration 10 nM)	0.603
GCTTACGGGTAAAAGGTTATAGCATGAATAGAAT	PPARg:RXRa 30nM:10nM, anti-RXR (NR concentration 30 nM, RXRa partner concentration 10 nM)	6.08
GGAACGAGGGCAAGTGGATAGCAGAGTTTGATGG	PPARg:RXRa 30nM:10nM, anti-RXR (NR concentration 30 nM, RXRa partner concentration 10 nM)	-0.127

Data credit: the supplement of paper PMC6555819
